Recorded remaining activity at 0.1 µM, one value per entry.
# Tested system: panel of 60 human kinases (Homo sapiens)
# Construct: purchased Reaction Biology Corp
# Assay comment: Radiolabeled ATP kinase assay, panel of 60 kinases (Table S5)
# Type: biochemical
# Settings: Aurora A; 0.1 μM; 10 μM ATP; read-out: % Enzyme Activity (relative to DSMO controls)
Value expressed in %; do not type the unit.

I am curious: what remaining activity at 0.1 µM value has been reported for CN1CCN(Cc2ccc(-c3cnc4[nH]cc(-c5ccc6[nH]ccc6c5)c4c3)cc2)CC1 [Compound 1, reference compound] ?
81.4

I am curious: what remaining activity at 0.1 µM value has been reported for CN1CCN(Cc2ccc(-c3cnc4[nH]cc(-c5ccc6c(c5)OCCO6)c4c3)cc2)CC1 [Compound 7d] ?
74.8

I am curious: what remaining activity at 0.1 µM value has been reported for CN1CCN(Cc2ccc(-c3cnc4[nH]cc(-c5ccncc5)c4c3)cc2)CC1 [Compound 7n] ?
96.4

I am curious: what remaining activity at 0.1 µM value has been reported for CN1CCN(Cc2ccc(-c3cnc4[nH]cc(-c5cnn(Cc6ccccc6)c5)c4c3)cc2)CC1 [Compound 7ah] ?
48.4

I am curious: what remaining activity at 0.1 µM value has been reported for CN1CCN(Cc2ccc(-c3cnc4[nH]cc(-c5ccoc5)c4c3)cc2)CC1 [Compound 7w] ?
83.9

I am curious: what remaining activity at 0.1 µM value has been reported for COc1ccccc1-c1c[nH]c2ncc(-c3ccc(CN4CCN(C)CC4)cc3)cc12 [Compound 7at] ?
90.2

I am curious: what remaining activity at 0.1 µM value has been reported for CN1CCN(Cc2ccc(-c3cnc4[nH]cc(-c5ccccc5Cl)c4c3)cc2)CC1 [Compound 7as] ?
81.1

I am curious: what remaining activity at 0.1 µM value has been reported for Cc1nn(C)c(C)c1-c1c[nH]c2ncc(-c3ccc(CN4CCN(C)CC4)cc3)cc12 [Compound 7ai] ?
95.5

I am curious: what remaining activity at 0.1 µM value has been reported for CN1CCN(Cc2ccc(-c3cnc4[nH]cc(-c5cccc(Cl)c5)c4c3)cc2)CC1 [Compound 7ad] ?
97.3

---

# Tested system: MLK1/MAP3K9 (Homo sapiens)
# Construct: purchased Reaction Biology Corp
# Sequence (P80192 whole entry): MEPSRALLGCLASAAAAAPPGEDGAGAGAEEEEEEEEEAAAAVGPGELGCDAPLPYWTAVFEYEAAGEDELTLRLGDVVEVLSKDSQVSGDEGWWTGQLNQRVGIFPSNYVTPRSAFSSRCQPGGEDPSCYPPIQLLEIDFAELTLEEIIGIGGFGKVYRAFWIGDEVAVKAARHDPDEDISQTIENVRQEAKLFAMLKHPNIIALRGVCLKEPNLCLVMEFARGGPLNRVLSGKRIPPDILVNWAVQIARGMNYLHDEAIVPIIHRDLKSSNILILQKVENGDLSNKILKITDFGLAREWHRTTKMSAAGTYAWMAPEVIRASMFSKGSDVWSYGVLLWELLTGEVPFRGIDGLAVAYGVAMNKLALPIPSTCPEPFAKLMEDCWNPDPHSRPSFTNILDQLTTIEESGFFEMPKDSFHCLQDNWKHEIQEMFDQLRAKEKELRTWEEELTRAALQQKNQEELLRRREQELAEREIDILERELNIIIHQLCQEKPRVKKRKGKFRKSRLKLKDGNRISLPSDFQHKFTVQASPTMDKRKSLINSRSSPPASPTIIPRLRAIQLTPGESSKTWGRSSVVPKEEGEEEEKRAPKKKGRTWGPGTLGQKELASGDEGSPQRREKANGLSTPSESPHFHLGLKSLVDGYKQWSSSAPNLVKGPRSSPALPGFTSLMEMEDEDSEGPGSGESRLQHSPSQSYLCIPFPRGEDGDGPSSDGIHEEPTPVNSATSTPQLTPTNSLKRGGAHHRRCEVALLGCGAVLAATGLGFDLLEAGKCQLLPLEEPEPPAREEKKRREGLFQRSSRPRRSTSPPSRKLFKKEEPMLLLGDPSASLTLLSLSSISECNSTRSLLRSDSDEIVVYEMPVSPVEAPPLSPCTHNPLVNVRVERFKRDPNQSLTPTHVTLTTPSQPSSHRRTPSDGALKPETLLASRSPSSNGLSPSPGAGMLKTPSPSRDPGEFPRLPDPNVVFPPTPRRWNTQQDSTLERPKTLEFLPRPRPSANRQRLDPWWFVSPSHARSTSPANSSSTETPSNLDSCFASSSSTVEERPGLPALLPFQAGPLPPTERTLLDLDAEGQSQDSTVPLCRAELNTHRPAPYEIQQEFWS
# Assay comment: Radiolabeled ATP kinase assay (Reaction Biology Corp.), MLK1
# Type: biochemical
# Settings: [Cmpd] 0.1 μM; 10 μM ATP; read-out: % Enzyme Activity Remaining (relative to DMSO controls), MLK1/MAP3K9, Data 2
Recorded remaining activity at 0.1 µM, one value per entry.
Value expressed in %; do not type the unit.

Examples with their reported remaining activity at 0.1 µM follow.
{"columns": ["Compound", "remaining activity at 0.1 µM, %"],
 "data": [
  ["CN1CCN(Cc2ccc(-c3cnc4[nH]cc(-c5cccc(N)c5)c4c3)cc2)CC1", 43.2],
  ["Cc1ccc(C)c(-c2c[nH]c3ncc(-c4ccc(CN5CCN(C)CC5)cc4)cc23)c1", 90.6],
  ["c1cc2cc(-c3c[nH]c4ncc(-c5ccc(CN6CC7CCC(C6)O7)cc5)cc34)ccc2[nH]1 [Compound 12a]", 46.5],
  ["CNC(=O)Nc1ccc(-c2c[nH]c3ncc(-c4ccc(CN5CCN(C)CC5)cc4)cc23)cc1", 51.2],
  ["COc1ccc(COc2ccc(-c3c[nH]c4ncc(-c5ccc(CN6CCN(C)CC6)cc5)cc34)cc2)cc1", 47.1]
]}

Fill in the recorded remaining activity at 0.1 µM for this compound, with MLK1/MAP3K9 (Homo sapiens) as test system: `CN1CCN(Cc2ccc(-c3cnc4[nH]cc(-c5ccc(NC(=O)NC6CCCCC6)cc5)c4c3)cc2)CC1`
79.4

Fill in the recorded remaining activity at 0.1 µM for this compound, with MLK1/MAP3K9 (Homo sapiens) as test system: `CN1CCN(Cc2ccc(-c3cnc4[nH]cc(-c5ccc(F)c(C(=O)NCc6ccco6)c5)c4c3)cc2)CC1`
84.2

Fill in the recorded remaining activity at 0.1 µM for this compound, with MLK1/MAP3K9 (Homo sapiens) as test system: `CN1CCN(Cc2ccc(-c3cnc4[nH]cc(-c5cnc(N)nc5)c4c3)cc2)CC1`
70.8

Fill in the recorded remaining activity at 0.1 µM for this compound, with MLK1/MAP3K9 (Homo sapiens) as test system: `CN1CCN(Cc2ccc(-c3cnc4[nH]cc(-c5cc(C(F)(F)F)cc(C(F)(F)F)c5)c4c3)cc2)CC1`
92.6

Fill in the recorded remaining activity at 0.1 µM for this compound, with MLK1/MAP3K9 (Homo sapiens) as test system: `COCCNC(=O)Nc1cccc(-c2c[nH]c3ncc(-c4ccc(CN5CCN(C)CC5)cc4)cc23)c1`
78.5

Fill in the recorded remaining activity at 0.1 µM for this compound, with MLK1/MAP3K9 (Homo sapiens) as test system: `CCOc1ccc(-c2c[nH]c3ncc(-c4ccc(CN5CCN(C)CC5)cc4)cc23)cn1`
87.8

Fill in the recorded remaining activity at 0.1 µM for this compound, with MLK1/MAP3K9 (Homo sapiens) as test system: `CN1CCN(Cc2ccc(-c3cnc4[nH]cc(-c5cc6ccccc6s5)c4c3)cc2)CC1`
58.5

---

Recorded remaining activity at 0.1 µM, one value per entry.
# Tested system: panel of 60 human kinases (Homo sapiens, UniProt Q9UKE5)
# Construct: purchased Reaction Biology Corp
# Sequence (Q9UKE5 whole entry): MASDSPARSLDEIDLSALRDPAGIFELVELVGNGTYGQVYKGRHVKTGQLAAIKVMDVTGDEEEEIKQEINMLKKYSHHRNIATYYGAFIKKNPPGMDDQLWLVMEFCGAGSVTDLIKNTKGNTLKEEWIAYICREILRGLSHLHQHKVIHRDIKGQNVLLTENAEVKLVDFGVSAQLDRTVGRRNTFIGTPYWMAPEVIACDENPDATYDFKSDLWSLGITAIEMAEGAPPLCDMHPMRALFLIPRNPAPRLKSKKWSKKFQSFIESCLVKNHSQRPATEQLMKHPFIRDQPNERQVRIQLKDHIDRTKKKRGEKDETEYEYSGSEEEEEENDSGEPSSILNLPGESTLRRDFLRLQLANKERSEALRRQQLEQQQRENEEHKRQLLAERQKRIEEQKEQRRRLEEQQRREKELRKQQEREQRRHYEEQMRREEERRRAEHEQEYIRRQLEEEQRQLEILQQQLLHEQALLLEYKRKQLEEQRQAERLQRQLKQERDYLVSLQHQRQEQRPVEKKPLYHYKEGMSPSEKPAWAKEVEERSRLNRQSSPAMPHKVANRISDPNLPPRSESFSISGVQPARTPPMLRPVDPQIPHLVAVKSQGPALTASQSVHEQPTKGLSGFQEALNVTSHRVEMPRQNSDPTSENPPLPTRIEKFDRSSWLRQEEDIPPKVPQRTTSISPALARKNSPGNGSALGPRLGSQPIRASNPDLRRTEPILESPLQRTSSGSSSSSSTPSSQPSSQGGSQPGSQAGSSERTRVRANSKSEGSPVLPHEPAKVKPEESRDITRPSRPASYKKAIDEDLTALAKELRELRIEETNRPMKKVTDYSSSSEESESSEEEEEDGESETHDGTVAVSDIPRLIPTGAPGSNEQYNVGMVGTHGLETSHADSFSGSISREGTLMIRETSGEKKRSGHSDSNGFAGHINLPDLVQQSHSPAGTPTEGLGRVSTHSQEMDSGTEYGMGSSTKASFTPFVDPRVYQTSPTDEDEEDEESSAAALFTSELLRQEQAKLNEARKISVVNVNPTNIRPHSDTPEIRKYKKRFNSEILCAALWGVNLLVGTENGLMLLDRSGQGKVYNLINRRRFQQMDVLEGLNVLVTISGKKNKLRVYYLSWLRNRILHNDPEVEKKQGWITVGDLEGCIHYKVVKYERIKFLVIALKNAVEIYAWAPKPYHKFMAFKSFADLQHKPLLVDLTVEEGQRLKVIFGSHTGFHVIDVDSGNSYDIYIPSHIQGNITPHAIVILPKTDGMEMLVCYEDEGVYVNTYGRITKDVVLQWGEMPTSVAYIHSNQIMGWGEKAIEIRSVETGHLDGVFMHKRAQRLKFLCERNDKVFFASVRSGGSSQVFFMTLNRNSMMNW
# Assay comment: Radiolabeled ATP kinase assay, panel of 60 kinases (Table S5)
# Type: biochemical
# Settings: TNIK; 0.1 μM; 10 μM ATP; read-out: % Enzyme Activity (relative to DSMO controls)
Value expressed in %; do not type the unit.

Fill in the recorded remaining activity at 0.1 µM for this compound, with panel of 60 human kinases (Homo sapiens, UniProt Q9UKE5) as test system: `CN1CCN(Cc2ccc(-c3cnc4[nH]cc(-c5ccncc5)c4c3)cc2)CC1`
6.7

---

# Tested system: MLK3/MAP3K11 (Homo sapiens, UniProt Q16584)
# Construct: purchased Reaction Biology Corp
# Sequence (Q16584 whole entry): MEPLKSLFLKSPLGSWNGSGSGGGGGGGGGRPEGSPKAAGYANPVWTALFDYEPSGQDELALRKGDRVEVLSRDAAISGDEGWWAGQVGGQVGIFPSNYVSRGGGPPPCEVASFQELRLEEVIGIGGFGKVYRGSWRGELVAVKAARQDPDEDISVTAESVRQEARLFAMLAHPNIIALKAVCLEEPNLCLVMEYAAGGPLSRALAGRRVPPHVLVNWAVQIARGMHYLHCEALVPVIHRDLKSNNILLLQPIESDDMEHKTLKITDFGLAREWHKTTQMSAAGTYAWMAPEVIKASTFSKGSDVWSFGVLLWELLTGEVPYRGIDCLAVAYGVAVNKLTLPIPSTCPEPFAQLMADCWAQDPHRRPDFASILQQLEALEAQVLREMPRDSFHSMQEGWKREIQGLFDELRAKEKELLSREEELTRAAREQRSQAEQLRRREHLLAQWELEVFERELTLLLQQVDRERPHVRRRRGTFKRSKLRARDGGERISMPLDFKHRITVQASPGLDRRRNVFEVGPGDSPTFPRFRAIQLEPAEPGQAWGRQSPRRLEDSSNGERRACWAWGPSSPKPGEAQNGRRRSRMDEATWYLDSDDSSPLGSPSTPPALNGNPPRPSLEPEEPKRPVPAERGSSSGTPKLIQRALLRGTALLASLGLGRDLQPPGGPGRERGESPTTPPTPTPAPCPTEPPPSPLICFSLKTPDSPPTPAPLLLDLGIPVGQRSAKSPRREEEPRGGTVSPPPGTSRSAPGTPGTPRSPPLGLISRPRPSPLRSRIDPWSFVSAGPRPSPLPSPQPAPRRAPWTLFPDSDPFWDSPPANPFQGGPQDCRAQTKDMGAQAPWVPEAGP
# Assay comment: Radiolabeled ATP kinase assay (Reaction Biology Corp.), MLK3
# Format: biochemical
# Settings: [Cmpd] 0.1 μM; 10 μM ATP
Recorded endpoint: % Enzyme Activity Remaining (relative to DMSO controls), MLK3/MAP3K11, Data 1 (%)
Value expressed in %; do not type the unit.

Examples with their reported % Enzyme Activity Remaining (relative to DMSO controls), MLK3/MAP3K11, Data 1 follow.
{"columns": ["Smiles representation", "Readout number"],
 "data": [
  ["CNC(=O)Nc1cccc(-c2c[nH]c3ncc(-c4ccc(CN5CCN(C)CC5)cc4)cc23)c1", 48.06],
  ["COCCNC(=O)Nc1cccc(-c2c[nH]c3ncc(-c4ccc(CN5CCN(C)CC5)cc4)cc23)c1", 79.28],
  ["CN1CCN(Cc2ccc(-c3cnc4[nH]ccc4c3)cc2)CC1", 91.95]
]}

Fill in the recorded % Enzyme Activity Remaining (relative to DMSO controls), MLK3/MAP3K11, Data 1 for this compound, with MLK3/MAP3K11 (Homo sapiens, UniProt Q16584) as test system: `CN1CCN(Cc2ccc(-c3cnc4[nH]cc(-c5ccc(OC(F)(F)F)cc5)c4c3)cc2)CC1`
93.59

Fill in the recorded % Enzyme Activity Remaining (relative to DMSO controls), MLK3/MAP3K11, Data 1 for this compound, with MLK3/MAP3K11 (Homo sapiens, UniProt Q16584) as test system: `CN1CCN(Cc2ccc(-c3cnc4[nH]cc(-c5cccc(NC(=O)NCc6ccco6)c5)c4c3)cc2)CC1`
84.43

Fill in the recorded % Enzyme Activity Remaining (relative to DMSO controls), MLK3/MAP3K11, Data 1 for this compound, with MLK3/MAP3K11 (Homo sapiens, UniProt Q16584) as test system: `CNC(=O)Nc1ccc(-c2c[nH]c3ncc(-c4ccc(CN5CCN(C)CC5)cc4)cc23)cc1`
49.77

Fill in the recorded % Enzyme Activity Remaining (relative to DMSO controls), MLK3/MAP3K11, Data 1 for this compound, with MLK3/MAP3K11 (Homo sapiens, UniProt Q16584) as test system: `CN1CCN(Cc2ccc(-c3cnc4[nH]cc(-c5cccc(O)c5)c4c3)cc2)CC1`
38.87

---

Recorded Cmax, one value per entry.
# Assay comment: In vivo pharmacokinetics, IP injection or oral gavage, 10 mg/kg
# Parameters: species or system mouse
# Settings: male, mouse, plasma, po, OG
# Method: Based on its strong performance in the microsome assay, 12k was selected for further pharmacokinetic analysis in vivo. […] Plasma samples were transferred to Eppendorf tubes (50 μL per sample) and diluted with acetonitrile (200 μL). […] The samples were reconstituted in a mixture of 40 μL acetonitrile and 10 μL water transferred to a sample vial with insert, and analyzed by LC-MS. […]
Value expressed in ng/mL; do not type the unit.

{"columns": ["Compound", "Result units", "Readout number"],
 "data": [
  ["OCCN1CCN(Cc2ccc(-c3cnc4[nH]cc(-c5cccc(Cl)c5)c4c3)cc2)CC1 [Compound 12k]", "ng/mL", 184]
]}

Next up:
I am curious: what Cmax value has been reported for CN1CCN(Cc2ccc(-c3cnc4[nH]cc(-c5ccc6[nH]ccc6c5)c4c3)cc2)CC1 [Compound 1, reference compound] ?
476
